Taken from ChEMBL document CHEMBL4689842.

test system: U2OS; test: Multiplex assay against U2OS; type: toxicity, cell-based; conditions: human, 24 h, 1 µM, compound concentration 1 uM, replicate 2
quantity_kind: Population Mitochondria Different-Phenotype (%)
Respond numerically; units are % and should not be typed.

Solved cases (4 shown):
Nc1ccc(C(=O)Nc2cccc(-c3nc(N4CCOCC4)c4oc5ncccc5c4n3)c2)cn1 ... 42
COc1ccc(NS(=O)(=O)c2sc3ccc(Cl)cc3c2C)cc1N1CCNCC1.Cl ... 13
CC(C)N1CCC(C)(C)c2cc(C#Cc3ccc(C(=O)O)cc3)ccc21 ... 10
CC(C)(C)c1cnc(CSc2cnc(NC(=O)C3CCNCC3)s2)o1 [BMS-387032] ... 36

Request: Population Mitochondria Different-Phenotype (%), test system U2OS, entry `Nc1nc2c(c(N3CCNCC3)n1)CCC1=C2[C@@H]2CCCC[C@@H]2O1`
Result: 20

Request: Population Mitochondria Different-Phenotype (%), test system U2OS, entry CCC(=O)O[C@]1(C(=O)SCF)[C@H](C)C[C@H]2[C@@H]3C[C@H](F)C4=CC(=O)C=C[C@]4(C)[C@@]3(F)[C@@H](O)C[C@@]21C [FLUTICASONE PROPIONATE]
Result: 11

Request: Population Mitochondria Different-Phenotype (%), test system U2OS, entry Cc1nc(Cc2cccc(C(F)(F)F)c2)sc1-c1ccc(C(N)=O)nc1 [TP-024n]
Result: 7

Request: Population Mitochondria Different-Phenotype (%), test system U2OS, entry CCc1cc2c(cc1CC)CC(NC[C@H](O)c1ccc(O)c3[nH]c(=O)ccc13)C2 [INDACATEROL]
Result: 10

Request: Population Mitochondria Different-Phenotype (%), test system U2OS, entry N#Cc1cnc(Nc2cc(NC[C@H]3CNCCO3)c(C(F)(F)F)cn2)cn1 [SRA-737]
Result: 23

----------
Total Cell Count by entry:
system: Fibroblast; assay: Multiplex assay against human fibroblast; assay type: toxicity, cell-based; settings: 48 h, 10 µM, compound concentration 10 uM, replicate 2
Lab note: write the figure by itself, no unit.

Solved cases (5 shown):
CC(=O)c1cc(-c2cc(C(=O)NC3CC3)ccc2C)c2ncccn12 ... 107
CC(C)N1CCC(C)(C)c2cc(C#Cc3ccc(C(=O)O)cc3)ccc21 ... 961
CNc1oc(-c2cccc3ccccc23)nc1C#N ... 2437
Cl.Cl.Nc1ncnc2c1c(-c1cccc(OCc3ccccc3)c1)cn2[C@H]1C[C@@H](CN2CCC2)C1 ... 122
CC(C)Oc1ccc(C(=O)N[C@H](CNC(=O)CN(C)C)Cc2ccc(-c3cn4cccc([C@H](C)O)c4n3)cc2)cc1Cl [GSK-923295A] ... 281

Request: Item CCn1c(-c2nonc2N)nc2cnc(Oc3cccc(NC(=O)c4ccc(OCCN5CCOCC5)cc4)c3)cc21 [GSK-269962A] has what recorded Total Cell Count?
Result: 172

Request: Item `Nc1nc2c(c(N3CCNCC3)n1)CCC1=C2[C@@H]2CCCC[C@@H]2O1` has what recorded Total Cell Count?
Result: 215

Request: Item `CCc1cc2c(cc1CC)CC(NC[C@H](O)c1ccc(O)c3[nH]c(=O)ccc13)C2` has what recorded Total Cell Count?
Result: 465

Request: Item `COc1cc(N2CCC(N(C)C)CC2)ccc1Nc1ncc(Cl)c(Nc2ccccc2P(C)(C)=O)n1` has what recorded Total Cell Count?
Result: 86

Request: Item `O=C(O)c1ccc2cc(-c3ccc(O)c(C45CC6CC(CC(C6)C4)C5)c3)ccc2c1` has what recorded Total Cell Count?
Result: 99

Request: Item Cc1nc(Cc2cccc(C(F)(F)F)c2)sc1-c1ccc(C(N)=O)nc1 [TP-024n] has what recorded Total Cell Count?
Result: 124

----------
system: Fibroblast; assay: Multiplex assay against human fibroblast; type: toxicity, cell-based; conditions: 12 h, 1 µM, compound concentration 1 uM, replicate 2
quantity_kind: Population Hoechst High Intensity Objects (%)
Hey, just the number and the unit after it is fine.

Solved cases (2 shown):
COc1cc2c(NC3CCN(C(C)C)CC3)nc(N3CCC(F)(F)CC3)nc2cc1OCCCN1CCCC1 ... 5%
Cc1cc2c(cc1N1C(=O)c3cccc4c(CCCO)ccc(c34)C1=O)n(C)c(=O)n2C ... 8%

Please turn your attention to the following entry.
Request: Population Hoechst High Intensity Objects (%), test system Fibroblast, entry CCn1c(-c2nonc2N)nc2cnc(Oc3cccc(NC(=O)c4ccc(OCCN5CCOCC5)cc4)c3)cc21 [GSK-269962A]
Result: 2%

----------
system: U2OS; assay: Multiplex assay against U2OS; type: toxicity, cell-based; conditions: human, 24 h, 1 µM, compound concentration 1 uM, replicate 2
quantity_kind: Population Healthy Nuclei (%)
Respond numerically; units are % and should not be typed.

Solved cases (2 shown):
Cl.Cl.NC1(c2ccc(-c3nc4ccn5c(=O)[nH]nc5c4cc3-c3ccccc3)cc2)CCC1 ... 81
CC(C)(C)c1cnc(CSc2cnc(NC(=O)C3CCNCC3)s2)o1 ... 80

Please turn your attention to the following entry.
Request: Item `CNC(=O)c1cc(Oc2ccc(NC(=O)Nc3cc(C(C)(C)C)nn3-c3ccc4ncccc4c3)c(F)c2)ccn1` has what recorded Population Healthy Nuclei (%)?
Result: 79

----------
test system: HEK-293T; assay: Multiplex assay against HEK293T; format: toxicity, cell-based; details: human, 24 h, 10 µM, compound concentration 10 uM, replicate 2;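 for Population Tubulin-Different-Phenotype (%): share of the cells with healthy nuclei that show this phenotype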
quantity_kind: Population Tubulin-Different-Phenotype (%)

Solved cases (6 shown):
COc1cc2c(NC3CCN(C(C)C)CC3)nc(N3CCC(F)(F)CC3)nc2cc1OCCCN1CCCC1 ... 86%
Cl.Cl.Nc1ncnc2c1c(-c1cccc(OCc3ccccc3)c1)cn2[C@H]1C[C@@H](CN2CCC2)C1 ... 68%
CCn1c(-c2nonc2N)nc2cnc(Oc3cccc(NC(=O)c4ccc(OCCN5CCOCC5)cc4)c3)cc21 [GSK-269962A] ... 97%
Nc1ccc(C(=O)Nc2cccc(-c3nc(N4CCOCC4)c4oc5ncccc5c4n3)c2)cn1 ... 50%
Cc1c(Oc2ccc(F)cc2)c(OC(C)C)nn1-c1ccc(C2CC2)cn1 [IPP/CNRS-A019] ... 20%
CCc1cc2c(cc1CC)CC(NC[C@H](O)c1ccc(O)c3[nH]c(=O)ccc13)C2 [INDACATEROL] ... 89%

Please turn your attention to the following entry.
Request: Population Tubulin-Different-Phenotype (%), test system HEK-293T, entry N#Cc1cnc(Nc2cc(NC[C@H]3CNCCO3)c(C(F)(F)F)cn2)cn1 [SRA-737]
Result: 44%

----------
system: U2OS; assay: Multiplex assay against U2OS; type: toxicity, cell-based; conditions: human, 24 h, 10 µM, compound concentration 10 uM, replicate 1
quantity_kind: Population Fragmented Nuclei (%)
Respond numerically; units are % and should not be typed.

Request: Population Fragmented Nuclei (%), test system U2OS, entry CCOc1cc2ncc(C#N)c(Nc3ccc(OCc4cccc(F)c4)c(Cl)c3)c2cc1NC(=O)/C=C/CN(C)C [HKI-357]
Result: 8

Request: Population Fragmented Nuclei (%), test system U2OS, entry CN(C)C/C=C/C(=O)Nc1cc2c(Nc3ccc(F)c(Cl)c3)ncnc2cc1O[C@H]1CCOC1.O=C(O)/C=C\C(=O)O.O=C(O)/C=C\C(=O)O [AFATINIB DIMALEATE]
Result: 10

Request: Population Fragmented Nuclei (%), test system U2OS, entry CCc1cc2c(cc1CC)CC(NC[C@H](O)c1ccc(O)c3[nH]c(=O)ccc13)C2 [INDACATEROL]
Result: 24

Request: Population Fragmented Nuclei (%), test system U2OS, entry `Cl.Cl.Nc1ncnc2c1c(-c1cccc(OCc3ccccc3)c1)cn2[C@H]1C[C@@H](CN2CCC2)C1`
Result: 25

Request: Population Fragmented Nuclei (%), test system U2OS, entry Cc1nc(Cc2cccc(C(F)(F)F)c2)sc1-c1ccc(C(N)=O)nc1 [TP-024n]
Result: 19

Request: Population Fragmented Nuclei (%), test system U2OS, entry N#Cc1cnc(Nc2cc(NC[C@H]3CNCCO3)c(C(F)(F)F)cn2)cn1 [SRA-737]
Result: 4

----------
Population Healthy Nuclei (%) by entry:
test system: HEK-293T; assay: Multiplex assay against HEK293T; format: toxicity, cell-based; conditions: human, 24 h, 10 µM, compound concentration 10 uM, replicate 1
Respond numerically; units are % and should not be typed.

Solved cases (3 shown):
Nc1nc2c(c(N3CCNCC3)n1)CCC1=C2[C@@H]2CCCC[C@@H]2O1 ... 40
CN(C)C/C=C/C(=O)Nc1cc2c(Nc3ccc(F)c(Cl)c3)ncnc2cc1O[C@H]1CCOC1.O=C(O)/C=C\C(=O)O.O=C(O)/C=C\C(=O)O [AFATINIB DIMALEATE] ... 34
Cc1c(Oc2ccc(F)cc2)c(OC(C)C)nn1-c1ccc(C2CC2)cn1 ... 77

Request: Item CCC(=O)O[C@]1(C(=O)SCF)[C@H](C)C[C@H]2[C@@H]3C[C@H](F)C4=CC(=O)C=C[C@]4(C)[C@@]3(F)[C@@H](O)C[C@@]21C [FLUTICASONE PROPIONATE] has what recorded Population Healthy Nuclei (%)?
Result: 33

Request: Item `c1ccc2oc(-c3csc(C4CCN(Cc5nc6ncccc6[nH]5)CC4)n3)cc2c1` has what recorded Population Healthy Nuclei (%)?
Result: 60

Request: Item `Nc1ccc(C(=O)Nc2cccc(-c3nc(N4CCOCC4)c4oc5ncccc5c4n3)c2)cn1` has what recorded Population Healthy Nuclei (%)?
Result: 7
